Recorded values, source patent US9676789B2.

tested on: MG63 (osteosarcoma); experiment: MTT solid tumor cell growth inhibition, 72 h; type: cell-based, human; settings: Homo sapiens; MG 63, 72 h; read-out: IC50
Lab note - cut at 2 µg/mL for IC50: label 1 if strictly below, label 0 if not.

Please review the entries below; each comes with its answer.
compound: COC1=C[C@]23CCCN2CCc2cc4c(cc2[C@@H]3[C@@H]1OC(=O)[C@@](O)(CCCC(C)(C)O)CC(=O)N1CCN(C(C)C)CC1)OCO4 [BS-HH-034]
test-system: MG63 (osteosarcoma)
class: label 1
--
compound: COC1=C[C@]23CCCN2CCc2cc4c(cc2[C@@H]3[C@@H]1OC(=O)[C@@](O)(CCCC(C)(C)O)CC(=O)NCc1ccco1)OCO4 [BS-HH-043]
test-system: MG63 (osteosarcoma)
class: label 0
--
compound: COC1=C[C@]23CCCN2CCc2cc4c(cc2[C@@H]3[C@@H]1OC(=O)[C@@](O)(CCCC(C)(C)O)CC(=O)Nc1nccs1)OCO4 [BS-HH-008]
test-system: MG63 (osteosarcoma)
class: label 0
--
compound: COCCCNC(=O)C[C@](O)(CCCC(C)(C)O)C(=O)O[C@@H]1C(OC)=C[C@]23CCCN2CCc2cc4c(cc2[C@H]13)OCO4 [BS-HH-028]
test-system: MG63 (osteosarcoma)
class: label 0
--
compound: COC1=C[C@]23CCCN2CCc2cc4c(cc2[C@@H]3[C@@H]1OC(=O)[C@@](O)(CCCC(C)(C)O)CC(=O)NCc1cccs1)OCO4 [BS-HH-055]
test-system: MG63 (osteosarcoma)
class: label 0

Take the compound COC1=C[C@]23CCCN2CCc2cc4c(cc2[C@@H]3[C@@H]1OC(=O)[C@@](O)(CCCC(C)(C)O)CC(=O)N1CCOCC1)OCO4 [BS-HH-011] and say whether its IC50 is less than 2 µg/mL.
label 0

Hello, I'm reviewing records and need to know if IC50 of COC(=O)C[C@](O)(CCCC(C)(C)O)C(=O)O[C@@H]1C(OC)=C[C@]23CCCN2CCc2cc4c(cc2[C@H]13)OCO4 [HHT, reference compound] is below 2 µg/mL. Could you check?
label 1

Record COC1=C[C@]23CCCN2CCc2cc4c(cc2[C@@H]3[C@@H]1OC(=O)[C@@](O)(CCCC(C)(C)O)CC(=O)N1CCCCC1C)OCO4 (some centres unmarked) [BS-HH-037] : is its IC50 strictly below 2 µg/mL?
label 1

Lab note: IC50 threshold 2 µg/mL. Does this compound come in strictly under it? COC1=C[C@]23CCCN2CCc2cc4c(cc2[C@@H]3[C@@H]1OC(=O)[C@@](O)(CCCC(C)(C)O)CC(=O)N1CCCC(O)C1)OCO4 (some centres unmarked) [BS-HH-025]
label 0

hey, is IC50 for COC1=C[C@]23CCCN2CCc2cc4c(cc2[C@@H]3[C@@H]1OC(=O)[C@@](O)(CCCC(C)(C)O)CC(=O)N1CCN(c2ccc(F)cc2)CC1)OCO4 [BS-HH-046] lower than 2 µg/mL or not?
label 1

Dear reviewer, please state whether COC1=C[C@]23CCCN2CCc2cc4c(cc2[C@@H]3[C@@H]1OC(=O)[C@@](O)(CCCC(C)(C)O)CC(=O)N1CCCC(C)C1)OCO4 (some centres unmarked) [BS-HH-038] has IC50 strictly beneath 2 µg/mL.
label 0

Dear colleague, could you confirm whether IC50 of COC1=C[C@]23CCCN2CCc2cc4c(cc2[C@@H]3[C@@H]1OC(=O)[C@@](O)(CCCC(C)(C)O)CC(=O)N1CCC(O)CC1)OCO4 [BS-HH-021] falls below 2 µg/mL? Thanks.
label 0

Say whether its IC50 is strictly beneath 2 µg/mL. Entry: COC1=C[C@]23CCCN2CCc2cc4c(cc2[C@@H]3[C@@H]1OC(=O)[C@@](O)(CCCC(C)(C)O)CC(=O)N1CCSCC1)OCO4 [BS-HH-014]
label 0

State whether 2 µg/mL exceeds IC50 recorded for COC1=C[C@]23CCCN2CCc2cc4c(cc2[C@@H]3[C@@H]1OC(=O)[C@@](O)(CCCC(C)(C)O)CC(=O)N1CCC(N(C)C)CC1)OCO4 [BS-HH-050] .
label 1
